target-desc: human Trypsin (Homo sapiens, UniProt P07477)
measurement-protocol: Selectivity screening, human serine protease trypsin
Format: biochemical
condition-set: at 25 μM; read-out: inhibition of human Trypsin
Where a SMILES comes first, the peptide text is derived from it. [ ]: non-standard residue; d: D form. The star is where a group is joined. Palmitoyl = CCCCCCCCCCCCCCCC(=O)*; hPhe = N[C@@H](CCc1ccccc1)C(=O)O; Phg = N[C@H](C(=O)O)c1ccccc1; β3hK = NCCCC[C@H](N)CC(=O)O; Pip = O=C(O)[C@@H]1CCCCN1
Let's look at some compounds and their measured inhibition at 25 µM.

The examples below pair each entry with its known result.
# compound, inhibition at 25 µM
rows = [
    ("CCCCCCCCCCCCCCCC(=O)N[C@@H](CCCCN)C(=O)N1CCCC[C@H]1C(=O)N[C@H](C(=O)N[C@@H](CCCCN)C(N)=O)c1ccccc1 [compound 16] (Palmitoyl-K[Pip][Phg]K-NH2)", "< 20%"),
    ("CCCCCCCCCCCCCCCC(=O)N[C@@H](CCCCN)CC(=O)N1CCC[C@H]1C(=O)N[C@@H](C)C(=O)N[C@@H](CCc1ccccc1)C(N)=O [compound 117] (Palmitoyl-[β3hK]PA[hPhe]-NH2)", "< 20%"),
]

# next compound below
[ask] Output measured inhibition at 25 µM for this item: CCCCCCCCCCCCCCCC(=O)N[C@@H](CCCCN)C(=O)N[C@@H](C)C(=O)N[C@@H](C)C(=O)N[C@@H](Cc1cnc[nH]1)C(N)=O [compound 168] (Palmitoyl-KAAH-NH2)
[reply] < 20%

Numbers sourced from patent US20250059231A1.
